biological target: T1, human LILRB4 (human, UniProt Q8NHJ6 22-448); assay: FACS, 293F-hLILRB4 cells
T1 construct: whole, on cells; also called hLILRB4
Each entry below carries its reported EC50.
# output: bare number, implied unit nM

{"columns": ["BINDER", "EC50 (nM)"],
 "data": [
  ["ch4-E6-E4-B12 (antibody, V domains shown) VH: EVQLKESGAELVKPGASVKLSCKASGYTFTSHWMHWVKQRPGQGLEWIGEINPSNGRTNYNEKFTSKATLTVDQSSSTAYMQLSSLTSEDSAVYYCARGNLTTVVPFDYWGQGTALTVSS VL: DIVMTQSPSSLSASLGGKVTITCKASQDINKFIAWYQHKPGKGPRLLIHFTSTLQPGIPSRFSGSGSGRDYSFSISNLEPEDIATYFCLQYDLLLTFGGGTKLEIK", 1.09],
  ["ch25-E7-A10-H6 (antibody, V domains shown) VH: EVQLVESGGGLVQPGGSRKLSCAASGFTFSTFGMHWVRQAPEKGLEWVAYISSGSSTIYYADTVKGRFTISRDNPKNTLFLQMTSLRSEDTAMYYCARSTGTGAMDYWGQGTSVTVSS VL: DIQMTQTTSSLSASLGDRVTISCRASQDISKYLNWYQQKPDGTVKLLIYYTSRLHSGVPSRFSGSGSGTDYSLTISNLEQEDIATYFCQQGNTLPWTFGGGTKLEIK", 1.4]
]}

Documented EC50 of ch44-F10-B6-D4 (antibody, V domains shown) VH: EVHLVESGGGLVKPGGSLKLSCAASGFTFSSYAMSWVRQTPEKRLEWVATISSGGSYIYYPDSVKGRFTISRDNAKNTLYLQMSSLRSEDTAMYYCARQDWDGGDYYAMDYWGQGTSVTVSS VL: DIVMTQSPSSLAVSAGEKVTMSCKSSQSVLYSSNQKNFLAWYQQKPGQSPKLLIYWASTRESGVPDRFTGSGSGTDFTLTISSVQAEDLAVYYCHQYLSSLTFGAGTKLELK : 0.57
